Test: Oral exposure in cynomolgus monkeys, compound alone or with excipient in capsules; plasma by LC-MS/MS
Assay type: in vivo
Details: male, cynomolgus monkey, plasma, po, 50 mg, oral, enteric capsule, dose 50 mg, with 25 mg sodium taurocholate, fasted; read-out: Cmax
Description: The influence of different excipients on the bioavailability of Compound (Ia), Compound 2 and Compound 3 in cynomolgus monkeys was investigated. […] Generally, an appropriate quantity (as indicated in Table 1) of Compound (Ia), Compound 2 or Compound 3 and an excipient were mixed to homogeneity and transferred to capsules for dosing. […]
Assay endpoint: Cmax (ng/mL)

                                   compound  measurement
0  C[C@H](Nc1cc(Cl)nc2c1cnn2[C@@H]1O[C@H](COP(=O)(O)CP(=O)(O)O)[C@@H](O)[C@H]1O)c1ccccc1F [Ia (•3Na)]          455

###

experiment: Oral exposure in cynomolgus monkeys, compound alone or with excipient in capsules; plasma by LC-MS/MS; type: in vivo; settings: male, cynomolgus monkey, plasma, po, 50 mg, enteric capsule, neat, fasted
Assay endpoint: AUC(0-inf) (µg·h/mL)

                                   compound     unit  measurement
0  C[C@H](Nc1cc(Cl)nc2c1cnn2[C@@H]1O[C@H](COP(=O)(O)CP(=O)(O)O)[C@@H](O)[C@H]1O)c1ccccc1F [Ia (•3Na)]  µg·h/mL         13.4

###

assay: Oral exposure in cynomolgus monkeys, compound alone or with excipient in capsules; plasma by LC-MS/MS; format: in vivo; details: male, cynomolgus monkey, plasma, po, 50 mg, oral, enteric capsule, dose 50 mg, with 7% w/w carbomer 971P, fasted; read-out: Cmax
Assay endpoint: Cmax (ng/mL)

                                   compound   unit  measurement
0  C[C@H](Nc1cc(Cl)nc2c1cnn2[C@@H]1O[C@H](COP(=O)(O)CP(=O)(O)O)[C@@H](O)[C@H]1O)c1ccccc1F [Ia (•3Na)]  ng/mL         1480

###

assay: Oral exposure in cynomolgus monkeys, compound alone or with excipient in capsules; plasma by LC-MS/MS; format: in vivo; settings: male, cynomolgus monkey, plasma, po, 50 mg, enteric capsule, with 100 mg Na-EDTA, fasted
Assay endpoint: AUC(0-inf)

In [3]: df
Out[3]:
                                        mol  assay_endpoint  measurement
0  C[C@H](Nc1cc(Cl)nc2c1cnn2[C@@H]1O[C@H](COP(=O)(O)CP(=O)(O)O)[C@@H](O)[C@H]1O)c1ccccc1F      AUC(0-inf)  154 µg·h/mL

###

assay: Oral exposure in cynomolgus monkeys, compound alone or with excipient in capsules; plasma by LC-MS/MS; type: in vivo; conditions: male, cynomolgus monkey, plasma, po, 10 mg, enteric capsule, with 195 mg sodium citrate, 3 mg SDS, fasted
Assay endpoint: AUC(0-inf) (ng·h/mL)

>>> df
                                   compound     unit  measurement
0  C[C@H](Nc1nc(Cl)nc2c1cnn2[C@@H]1O[C@H](COP(=O)(O)CP(=O)(O)O)[C@@H](O)[C@H]1O)c1ccccc1 [2 (Na)]  ng·h/mL         4880
